Biological target: Serine/threonine-protein kinase Chk1 (Homo sapiens)
Sequence (whole entry): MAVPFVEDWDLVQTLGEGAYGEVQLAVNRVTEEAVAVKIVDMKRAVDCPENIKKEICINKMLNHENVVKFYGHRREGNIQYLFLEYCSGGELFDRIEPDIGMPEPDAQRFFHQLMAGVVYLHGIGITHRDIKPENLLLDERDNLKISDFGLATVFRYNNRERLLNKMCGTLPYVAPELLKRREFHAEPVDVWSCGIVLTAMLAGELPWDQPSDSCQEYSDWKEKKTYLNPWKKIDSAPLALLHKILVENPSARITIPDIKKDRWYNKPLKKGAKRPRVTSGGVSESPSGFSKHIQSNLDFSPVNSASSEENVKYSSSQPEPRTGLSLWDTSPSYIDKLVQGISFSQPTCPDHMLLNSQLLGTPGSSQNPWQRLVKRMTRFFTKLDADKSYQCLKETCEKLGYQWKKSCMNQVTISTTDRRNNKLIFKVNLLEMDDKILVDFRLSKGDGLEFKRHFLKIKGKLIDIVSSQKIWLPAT
Assay: Inhibition of CHK1 at 250 uM by alphascreen assay in presence of 0.01% Triton-X100
Assign 1 whenever inhibition does not fall below 40%; assign -1 whenever it does.

- COc1cccc(CNc2ncnc3cc(OC)c(OC)cc23)c1: 1
- Fc1ccc(-c2onc3ccc(-c4cc[nH]n4)cc23)cc1: -1
- Clc1ccc2c(Nc3ccccc3)ncnc2c1: 1
- O=c1[nH]cnc2sc3c(c12)CCCC3: 1
- c1nc(N2CCOCC2)c2nc[nH]c2n1: 1
- CSC1=N/C(=C\c2cccs2)C(=O)N1: -1
- CCCNc1nc2ccccc2c(=O)[nH]1: -1
- CC(=O)Nc1nc2c(s1)C(=O)NCCC2: 1

====

Biological target: Serine/threonine-protein kinase Chk1 (Homo sapiens)
Experiment: Inhibition of CHK1 at 250 uM by alphascreen assay
Use rule met when the recorded inhibition is no lower than 40%; use rule not met when it is lower.

• Fc1ccc(-c2onc3ccc(-c4cc[nH]n4)cc23)cc1 = rule not met
• O=c1[nH]cnc2sc3c(c12)CCCC3 = rule not met
• c1nc(N2CCOCC2)c2nc[nH]c2n1 = rule met
• Clc1ccc2c(Nc3ccccc3)ncnc2c1 = rule met
• CSC1=N/C(=C\c2cccs2)C(=O)N1 = rule not met
• CC(=O)Nc1nc2c(s1)C(=O)NCCC2 = rule met
• COc1cccc(CNc2ncnc3cc(OC)c(OC)cc23)c1 = rule met
• CC(C)(C)Nc1nc(N)c(C(=O)c2ccccc2)s1 = rule not met

====

Quick reference for inhibition among some molecules
Target: Cyclin-dependent kinase 1 (Homo sapiens)
Assay: Inhibition of CDK1 assessed as Rb (ser780) biotinylated peptide phosphorylation at 100 uM by DELFIA assay
Quantity Kind: inhibition

• NCC1CN(c2c(-c3ccsc3)cnc3[nH]ncc23)CCO1 (centres undefined) = 48%
• NC[C@@H]1CN(c2c(-c3ccccc3)cnc3[nH]ncc23)CCO1 = 43%
• NCC1CN(c2c(Br)cnc3[nH]ncc23)CCO1 (centres undefined) = 37%
• CCOC(=O)c1cnc2[nH]ncc2c1N1CCOC(CN)C1 (centres undefined) = 3%

====

Biological target: Serine/threonine-protein kinase Chk1 (Homo sapiens)
Assay: Inhibition of CHK1 assessed as CDC25C peptide phosphorylation at 100 uM by DELFIA assay
Quantity Kind: inhibition (%)

* CC(C)(C)OC(=O)NCC1CN(c2ncnc3[nH]cnc23)CCO1 (configuration not stated) | 43
* O=C(O)CC1CN(c2ncnc3[nH]cnc23)CCO1 (configuration not stated) | 22
* CC(=O)Nc1nc2c(s1)C(=O)NCCC2 | 27
* CC(C)(C)Nc1nc(N)c(C(=O)c2ccccc2)s1 | 33
* O=C(O)C1COCCN1c1ncnc2[nH]cnc12 (configuration not stated) | 12
* CSC1=N/C(=C\c2cccs2)C(=O)N1 | 32
* CCCNc1nc2ccccc2c(=O)[nH]1 | 0
